The molecules listed here are annotated with their inhibition.
tested system: Mitogen-activated protein kinase 14 (Homo sapiens)
assay procedure: Inhibition of human stress-activated protein kinase-2 alpha (p38 MAP-kinase) at 30 uM

molecule: Nc1[nH]cnc2ncnc1-2
tested system: Mitogen-activated protein kinase 14 (Homo sapiens)
inhibition, %: 7
--
molecule: Cn1c(-c2ccccc2)nc2c(-c3ccc(F)cc3)ncnc21
tested system: Mitogen-activated protein kinase 14 (Homo sapiens)
inhibition, %: 23
--
molecule: Cn1cnc2c(Nc3ccccc3)ncnc21
tested system: Mitogen-activated protein kinase 14 (Homo sapiens)
inhibition, %: 0
--
molecule: COc1ncnc2ncn(Cc3ccc(F)cc3)c12
tested system: Mitogen-activated protein kinase 14 (Homo sapiens)
inhibition, %: 8
--
molecule: Nc1ncnc2ncn(Cc3ccc(F)cc3)c12
tested system: Mitogen-activated protein kinase 14 (Homo sapiens)
inhibition, %: 8
--
molecule: Nc1ncnc2c1ncn2Cc1ccccc1
tested system: Mitogen-activated protein kinase 14 (Homo sapiens)
inhibition, %: 7
--
molecule: Cn1c(-c2ccc([S+](C)[O-])cc2)nc2c(Sc3ccccc3)ncnc21 (stereo not given)
tested system: Mitogen-activated protein kinase 14 (Homo sapiens)
inhibition, %: 27
--
molecule: c1ccc(Oc2ncnc3[nH]cnc23)cc1
tested system: Mitogen-activated protein kinase 14 (Homo sapiens)
inhibition, %: 12
--
molecule: Fc1ccc(C[n+]2c[nH]c3ncncc32)cc1
tested system: Mitogen-activated protein kinase 14 (Homo sapiens)
inhibition, %: 5
--
molecule: c1ccc(Nc2ncnc3[nH]cnc23)cc1
tested system: Mitogen-activated protein kinase 14 (Homo sapiens)
inhibition, %: 34
--
molecule: Fc1ccc(Nc2[nH]cnc3ncnc2-3)cc1
tested system: Mitogen-activated protein kinase 14 (Homo sapiens)
inhibition, %: 30
--
molecule: Cn1cnc2c(/C=C/c3ccccc3)ncnc21
tested system: Mitogen-activated protein kinase 14 (Homo sapiens)
inhibition, %: 12
--
molecule: Fc1ccc(Cn2cnc3c(Cl)ncnc32)cc1
tested system: Mitogen-activated protein kinase 14 (Homo sapiens)
inhibition, %: 10
--
molecule: Fc1ccc(Sc2ncnc3[nH]cnc23)cc1
tested system: Mitogen-activated protein kinase 14 (Homo sapiens)
inhibition, %: 72
--
molecule: CSc1ccc(-c2nc3c(Sc4ccc(F)cc4)ncnc3n2C)cc1
tested system: Mitogen-activated protein kinase 14 (Homo sapiens)
inhibition, %: 15
--
molecule: Cn1cnc2c(SCc3ccccc3)ncnc21
tested system: Mitogen-activated protein kinase 14 (Homo sapiens)
inhibition, %: 22
--
molecule: Cn1cnc2c(Sc3ccc(F)cc3)ncnc21
tested system: Mitogen-activated protein kinase 14 (Homo sapiens)
inhibition, %: 38
--
molecule: Fc1ccc(Cn2cnc3ncnc(Cl)c32)cc1
tested system: Mitogen-activated protein kinase 14 (Homo sapiens)
inhibition, %: 17
--
molecule: c1ccc(Cc2[nH]cnc3ncnc2-3)cc1
tested system: Mitogen-activated protein kinase 14 (Homo sapiens)
inhibition, %: 8
--
molecule: Cn1cnc2c(-c3ccccc3)ncnc21
tested system: Mitogen-activated protein kinase 14 (Homo sapiens)
inhibition, %: 16
--
molecule: Cn1cnc2c(Nc3ccc(F)cc3)ncnc21
tested system: Mitogen-activated protein kinase 14 (Homo sapiens)
inhibition, %: 13
--
molecule: Cn1c(Br)nc2c(Sc3ccccc3)ncnc21
tested system: Mitogen-activated protein kinase 14 (Homo sapiens)
inhibition, %: 23
--
molecule: c1ccc(C[n+]2c[nH]c3ncncc32)cc1
tested system: Mitogen-activated protein kinase 14 (Homo sapiens)
inhibition, %: 6
--
molecule: c1ccc(CSc2ncnc3[nH]cnc23)cc1
tested system: Mitogen-activated protein kinase 14 (Homo sapiens)
inhibition, %: 50
--
molecule: CSc1ccc(-c2nc3c(Sc4ccccc4)ncnc3n2C)cc1
tested system: Mitogen-activated protein kinase 14 (Homo sapiens)
inhibition, %: 11
--
molecule: Fc1ccc(CSc2[nH]cnc3ncnc2-3)cc1
tested system: Mitogen-activated protein kinase 14 (Homo sapiens)
inhibition, %: 29
--
molecule: Nc1ncnc2c1ncn2Cc1ccc(F)cc1
tested system: Mitogen-activated protein kinase 14 (Homo sapiens)
inhibition, %: 8
--
molecule: Fc1ccc(Cn2cnc3c(Sc4ccc(F)cc4)ncnc32)cc1
tested system: Mitogen-activated protein kinase 14 (Homo sapiens)
inhibition, %: 27
--
molecule: Cn1c(-c2ccccc2)nc2c(Sc3ccccc3)ncnc21
tested system: Mitogen-activated protein kinase 14 (Homo sapiens)
inhibition, %: 44
--
molecule: c1ccc(Sc2ncnc3[nH]cnc23)cc1
tested system: Mitogen-activated protein kinase 14 (Homo sapiens)
inhibition, %: 54
--
molecule: Cn1cnc2c(SCc3ccc(F)cc3)ncnc21
tested system: Mitogen-activated protein kinase 14 (Homo sapiens)
inhibition, %: 21
--
molecule: c1ccc(-[n+]2c[nH]c3ncncc32)cc1
tested system: Mitogen-activated protein kinase 14 (Homo sapiens)
inhibition, %: 0
--
molecule: Fc1ccc(-[n+]2c[nH]c3ncncc32)cc1
tested system: Mitogen-activated protein kinase 14 (Homo sapiens)
inhibition, %: 0
--
molecule: Cn1c(-c2ccc(S(C)(=O)=O)cc2)nc2c(Sc3ccccc3)ncnc21
tested system: Mitogen-activated protein kinase 14 (Homo sapiens)
inhibition, %: 36
--
molecule: Fc1ccc(Sc2[nH]cnc3nccc2-3)cc1
tested system: Mitogen-activated protein kinase 14 (Homo sapiens)
inhibition, %: 79
--
molecule: Cn1c(C#CCCO)nc2c(Sc3ccccc3)ncnc21
tested system: Mitogen-activated protein kinase 14 (Homo sapiens)
inhibition, %: 3
--
molecule: Clc1ncnc2c1ncn2Cc1ccccc1
tested system: Mitogen-activated protein kinase 14 (Homo sapiens)
inhibition, %: 11
--
molecule: Fc1ccc(Cn2cnc3c(Sc4ccccc4)ncnc32)cc1
tested system: Mitogen-activated protein kinase 14 (Homo sapiens)
inhibition, %: 67
--
molecule: Cn1c(-c2ccccc2)nc2c(Sc3ccc(F)cc3)ncnc21
tested system: Mitogen-activated protein kinase 14 (Homo sapiens)
inhibition, %: 29
--
molecule: Fc1ccc(Oc2[nH]cnc3ncnc2-3)cc1
tested system: Mitogen-activated protein kinase 14 (Homo sapiens)
inhibition, %: 18
--
molecule: c1ccc(Cn2cnc3c(Sc4ccccc4)ncnc32)cc1
tested system: Mitogen-activated protein kinase 14 (Homo sapiens)
inhibition, %: 64
--
molecule: Fc1ccc(Sc2ncnc3c2ncn3Cc2ccccc2)cc1
tested system: Mitogen-activated protein kinase 14 (Homo sapiens)
inhibition, %: 64
--
molecule: Clc1ncnc2ncn(Cc3ccccc3)c12
tested system: Mitogen-activated protein kinase 14 (Homo sapiens)
inhibition, %: 7
--
molecule: Cn1cnc2c(Sc3ccccc3)ncnc21
tested system: Mitogen-activated protein kinase 14 (Homo sapiens)
inhibition, %: 17
--
molecule: Cn1c(-c2ccc(S(C)(=O)=O)cc2)nc2c(Sc3ccc(F)cc3)ncnc21
tested system: Mitogen-activated protein kinase 14 (Homo sapiens)
inhibition, %: 19
